Target: NK2 (Homo sapiens, UniProt P21452)
Sequence (P21452 whole entry): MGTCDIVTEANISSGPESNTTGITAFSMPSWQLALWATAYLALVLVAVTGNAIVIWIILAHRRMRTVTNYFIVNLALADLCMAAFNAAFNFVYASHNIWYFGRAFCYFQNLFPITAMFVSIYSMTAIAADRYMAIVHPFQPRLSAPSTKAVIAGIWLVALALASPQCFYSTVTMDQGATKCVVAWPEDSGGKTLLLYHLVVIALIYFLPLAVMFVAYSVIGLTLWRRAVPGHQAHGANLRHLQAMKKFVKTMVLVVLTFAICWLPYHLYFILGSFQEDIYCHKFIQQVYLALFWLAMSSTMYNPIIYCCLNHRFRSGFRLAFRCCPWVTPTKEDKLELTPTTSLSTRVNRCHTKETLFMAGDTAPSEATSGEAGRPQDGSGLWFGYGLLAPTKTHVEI
Assay: Signal transduction (ST), intracellular Ca++ (FLIPR), NK2
Assay type: cell-based
Conditions: read-out: pIC50 NK2 (converted)
measured-parameter: IC50 (nM)

>>> endpoint_value("CC(C)N/C(=C\\[N+](=O)[O-])N1CCCC(N2CCN(C3CCN(C(=O)c4cc(C(F)(F)F)cc(C(F)(F)F)c4)C(Cc4ccccc4)C3)CC2)C1 (stereo not drawn)")
6310
>>> endpoint_value("O=C(c1cc(C(F)(F)F)cc(C(F)(F)F)c1)N1CCC(N2CCN(C3CCCN(S(=O)(=O)c4cc(CCO)cs4)C3)CC2)CC1Cc1ccccc1 (stereo not drawn)")
398
>>> endpoint_value("CC(C(=O)N1CCCC(N2CCN([C@H]3CCN(C(=O)c4cc(C(F)(F)F)cc(C(F)(F)F)c4)[C@H](Cc4ccccc4)C3)CC2)C1)c1ccccc1 (stereo partly drawn)")
1000
>>> endpoint_value("N#Cc1cccc(C(=O)N2CCCC(N3CCN([C@H]4CCN(C(=O)c5cc(C(F)(F)F)cc(C(F)(F)F)c5)[C@H](Cc5ccccc5)C4)CC3)C2)c1 (stereo partly drawn)")
3160
>>> endpoint_value("O=C(c1cc(C(F)(F)F)cc(C(F)(F)F)c1)N1CCC(N2CCN(C3CCCN(S(=O)(=O)Cc4ccccc4)C3)CC2)CC1Cc1ccccc1 (stereo not drawn)")
631
>>> endpoint_value("COc1ccc(S(=O)(=O)N2CCCC(N3CCN([C@H]4CCN(C(=O)c5cc(C(F)(F)F)cc(C(F)(F)F)c5)[C@H](Cc5ccccc5)C4)CC3)C2)cc1 (stereo partly drawn)")
2000

---

Molecular target: NK1 (Homo sapiens, UniProt P25103)
Sequence (P25103 whole entry): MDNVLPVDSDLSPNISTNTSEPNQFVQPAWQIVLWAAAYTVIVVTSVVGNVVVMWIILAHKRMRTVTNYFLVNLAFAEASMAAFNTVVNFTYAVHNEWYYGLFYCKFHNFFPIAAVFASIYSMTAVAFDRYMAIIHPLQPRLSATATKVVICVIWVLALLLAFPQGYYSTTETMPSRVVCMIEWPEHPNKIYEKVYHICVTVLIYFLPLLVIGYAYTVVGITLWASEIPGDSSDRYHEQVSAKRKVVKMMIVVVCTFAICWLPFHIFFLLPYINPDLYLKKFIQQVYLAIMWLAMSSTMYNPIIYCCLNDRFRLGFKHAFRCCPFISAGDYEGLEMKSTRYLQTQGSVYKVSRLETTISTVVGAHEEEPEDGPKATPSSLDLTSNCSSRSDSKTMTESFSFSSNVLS
Experiment: Signal transduction (ST), intracellular Ca++ (FLIPR), NK1 antagonism
Format: cell-based
Entries and their measured pIC50 NK1 follow.
measured-parameter: pIC50 NK1

>>> endpoint_value("COc1cccc(S(=O)(=O)N2CCCC(N3CCN([C@H]4CCN(C(=O)c5cc(C(F)(F)F)cc(C(F)(F)F)c5)[C@H](Cc5ccccc5)C4)CC3)C2)c1 (some centres unmarked)")
7.8
>>> endpoint_value("O=C(c1cc(CCOCc2ccccc2)cs1)N1CCCC(N2CCN([C@H]3CCN(C(=O)c4cc(C(F)(F)F)cc(C(F)(F)F)c4)[C@H](Cc4ccccc4)C3)CC2)C1 (some centres unmarked)")
6.7
>>> endpoint_value("CC(C)(C)OC(=O)N1CCC[C@@H]1C(=O)N1CCCC(N2CCN([C@H]3CCN(C(=O)c4cc(C(F)(F)F)cc(C(F)(F)F)c4)[C@H](Cc4ccccc4)C3)CC2)C1 (some centres unmarked)")
8.3
>>> endpoint_value("O=C(c1cc(C(F)(F)F)cc(C(F)(F)F)c1)N1CC[C@H](N2CCN(C3CCCN(S(=O)(=O)c4cc(Cl)sc4Cl)C3)CC2)C[C@H]1Cc1ccccc1 (some centres unmarked)")
7.6
>>> endpoint_value("O=C(c1cc(C(F)(F)F)cc(C(F)(F)F)c1)N1CC[C@H](N2CCN(C3CCCN(S(=O)(=O)c4ccc(CCO)s4)C3)CC2)C[C@H]1Cc1ccccc1 (some centres unmarked)")
8.2

---

Target: NK3 (Homo sapiens)
Sequence (P29371 whole entry): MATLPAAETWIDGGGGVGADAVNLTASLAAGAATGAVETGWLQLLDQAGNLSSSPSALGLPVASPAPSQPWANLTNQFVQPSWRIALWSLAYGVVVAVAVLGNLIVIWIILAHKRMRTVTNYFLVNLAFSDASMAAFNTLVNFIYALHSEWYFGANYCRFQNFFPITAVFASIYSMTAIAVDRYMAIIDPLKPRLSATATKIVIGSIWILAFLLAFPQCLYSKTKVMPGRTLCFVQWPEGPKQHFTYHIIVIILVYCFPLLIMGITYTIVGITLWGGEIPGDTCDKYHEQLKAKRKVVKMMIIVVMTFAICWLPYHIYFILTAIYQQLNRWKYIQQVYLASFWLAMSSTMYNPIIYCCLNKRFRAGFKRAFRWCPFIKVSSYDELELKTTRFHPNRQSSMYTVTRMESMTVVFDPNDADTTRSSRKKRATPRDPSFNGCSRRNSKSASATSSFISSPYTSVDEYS
Assay: Signal transduction (ST), intracellular Ca++ (FLIPR), NK3
Format: cell-based
Settings: read-out: pIC50 NK3 (converted)
measured-parameter: IC50

>>> endpoint_value("Cc1csc(C)c1S(=O)(=O)N1CCCC(N2CCN([C@H]3CCN(C(=O)c4cc(C(F)(F)F)cc(C(F)(F)F)c4)[C@H](Cc4ccccc4)C3)CC2)C1 (stereo partly drawn) [Compound 33]")
"1 µM"
>>> endpoint_value("O=C(c1cc(C(F)(F)F)cc(C(F)(F)F)c1)N1CC[C@H](N2CCN(C3CCCN(C(CO)c4ccccc4Cl)C3)CC2)C[C@H]1Cc1ccccc1 (stereo partly drawn) [Compound 89]")
"7.94 µM"
>>> endpoint_value("CC(=O)N1CCC[C@H]1C(=O)N1CCCC(N2CCN([C@H]3CCN(C(=O)c4cc(C(F)(F)F)cc(C(F)(F)F)c4)[C@H](Cc4ccccc4)C3)CC2)C1 (stereo partly drawn) [Compound 60]")
"6.31 µM"

These measurements were taken from patent US7572786B2.
